The reported numbers originate from the nanobody polyreactivity screen of Harvey et al. (2022).

assay_name: yeast display, Sf9 membrane polyspecificity reagent, FACS + sequencing; frameworks hold sequencing errors

- sequence_record: "QVQLVESGGGLVQAGGSLRLSCAASGRIFSSYAMGWYRQAPGKERELVAAISRGGGRTYYADSVKGRFTISRDNAKNTVYLQMNSLKPEDTAVYYCATVVRSAAYAFDYWGQGTQVTVSS"
  polyreactivity (PSR sort gate): "high polyreactivity"
- sequence_record: "QVQLVESGGGLVQAGGSLRLSCAASGSIFRSYAMGWYRQAPGKERELVAAISRRGSSTYYADSVKGRFTISRDNAKNTVYLQMNSLKPEDTAVYYCAADRVVPRGRYGGDYWGQGTQVTVSS"
  polyreactivity (PSR sort gate): "high polyreactivity"
- sequence_record: "QVQLVESGGGLVQAGGSLRLSSAASGSTFVQNAIGWYRQAPGKERELVAAISRTGGSTYSAHSVKGRFTIYRDNAKNTVYLEMNSLKPEDTAVYYFAKRPPHYSWPTFIEFGSWGLGTQVTVSS"
  polyreactivity (PSR sort gate): "high polyreactivity"

###

assay_name: yeast display, Sf9 membrane polyspecificity reagent, FACS + sequencing; frameworks hold sequencing errors
quantity_name: polyreactivity (PSR sort gate)

- sequence_record: "QVQLVESGGGLVQAGGSLRLSCAASGSIFTTNAMGWYRQAPGKERELVARIDRAGSTYYADSVKGRFTISRDNAKNTVYLQMNSLKPVDTAVYYCAVEAVLSRPYATKFDYWGQGTQVNVSS"
  assay_value: "low polyreactivity"
- sequence_record: "QVQLVESGGGLVQAGGSLRISCAASGYTFGNYAMGWYRQAPGKERELVAAISWRGARTNYADSVKGRFTISRDNAKNTVYLQMNSLKPEDTAVYYCAAGYYYGYPPRDYWGQGTQVTVSS"
  assay_value: "high polyreactivity"
- sequence_record: "QVQLVESGGGLVQAGGRLRLSCAASGRIFKSNAMGWYRQAPGKERELVATIDVIGTSTYYADSVKGRFTISRDNAKNTVYLQMNSLKPEDTAVYYCAAVGWGGWSDSYDYWGQGTQVTVSS"
  assay_value: "low polyreactivity"
- sequence_record: "QVQLVESGGGLVQAGGSLRLSCAASGSIFGGYAMGWYRQAPGKERELVAAISSGGSTYYADSVKGRFTISRDNAKNTVYLQMNSLKPEDTAVYYCATSTFAYRRNSYYYTRPRFGYWGQGTQVTVSS"
  assay_value: "high polyreactivity"
- sequence_record: "QVQLVESGGGLVQAGGSLRLSCAASGSIFTPYVMGWYRQAPGKERELVAAISKRGTRTYYADSVTGRFTISRDNAKNTVYFQMNSLKPEDTAVYYCNAAVDYGSEHDYWGQGTQVTVSS"
  assay_value: "high polyreactivity"

###

assay_name: yeast display, Sf9 membrane polyspecificity reagent, FACS + sequencing; frameworks hold sequencing errors

- sequence_record: "QVQLGESGGGLVQAGGSLRLSCAASGSIFVRNAMGWYRQAPGKERELVAAINGRGTSTYYADSVKGRFTISRDNAKNTVYLQMNSLKPEDTAVYYCATSLTSPRRAYGYWGQGTQVTVSS"
  polyreactivity (PSR sort gate): "high polyreactivity"
- sequence_record: "QVQLVESGGGLVQAGGSLRLSCAASGFTFSFYAMGWYRQAPGKERELVAGISKRGGSTYYADSVKGRFTISRDNAKNTVYLQMNSLKPEDTAVYYCAKRSSLYRSLVDYWGQGTQVTVSS"
  polyreactivity (PSR sort gate): "high polyreactivity"
- sequence_record: "QVQLVESGGGLVQAGGSLRLSCSASGFTIYYYTMGWYRQAPGKERELVAAITRSGGRTYYADSVKGRFTISRDNSKNTVYLQMISLKPEDPAVYYCAASTYNNFWYLGYGYWGQGTQVTVSS"
  polyreactivity (PSR sort gate): "high polyreactivity"
- sequence_record: "QVQLVESGGGLVQAGGSLRLSCPASGFNFSHNAMGWYRQAPGKERELVAAITWSGAITSYADSVKGRFTISRDNAKNTVYLQMNILKPEDTAVYYCAKLWSWDLSRYGPRVDYWGQGTQVTVSS"
  polyreactivity (PSR sort gate): "low polyreactivity"
- sequence_record: "QVHLVESGGGLVQAGGRLRLSCAASGGTFYYIAMGWYRQAPGKERELVAAISWSGVSTSYADTVKGRFTISRDNEKNTVYLQMNSLKPEDTAVYYCAAGPFYYTGFEGDYWGQGTQVTVSS"
  polyreactivity (PSR sort gate): "high polyreactivity"
- sequence_record: "QVQLVESGGGLVQAGGSLRLSCAASGSIFQDYTMGWYRQAPGKDRELVAAITDNGGSTYYADSVKGRFTISRDNAKNTVYLQMNSLKPEDTAVYYCAKDWDYSAPGYYLYGYWGQGTQVTVSS"
  polyreactivity (PSR sort gate): "low polyreactivity"
- sequence_record: "QVQLVESGGGLVQAGGSIRLSCAASGINFYGNAMGWYRQAPGKETELVAAISWSGSSTYYADSVKGRFTISRDNAKNTVYFQMLSLKPEDTAVYYCKKATSSVRYLIYYYWGQGTQVTVSS"
  polyreactivity (PSR sort gate): "high polyreactivity"
- sequence_record: "QVQIVESGGGIVQAGVSLRLICAASGFTFIDNTMGWYRQAPGKERELVAAISSDGRTNYADSVKGRFTISRDNAKNNVYLQKNSLKPEYTAVYYCASEDYYWYVTGDLYHTAVYYWGQGTQVTVSS"
  polyreactivity (PSR sort gate): "low polyreactivity"
- sequence_record: "QVQLLESGGGLVQAGGSLRLSCAASGLTFSSYTMGWYRQAPGKERELVAANTRRGTSTYYADSVKGRFTISRDNAKNTVYLQMNSLKPEDTAVYYCNALVYDEYGYYHYYLRNGGYYWGQGTQVTVSS"
  polyreactivity (PSR sort gate): "high polyreactivity"
- sequence_record: "QVQLVESGGGLVQAGGSLRLSCAASGSIFARYAMGWYRQAPGKERELVAAIDQSAGSTYYADSVKGRFTISRDNAKNTVYLQMNSLKPEDTAVYYCNADYWYWWVITYVGPGLGYWGQGTQVTVSS"
  polyreactivity (PSR sort gate): "high polyreactivity"
- sequence_record: "QVQLVESGGGLVQAGGSLRLSCAASGSTIRVYGMGWYRQAPGKERELVAAIRWIGGRTYYADSVKARFTISRDNAKNTVYLQMNSLKPEDTAVYYCNARAGPVRFDYWGQGTQVTVAS"
  polyreactivity (PSR sort gate): "low polyreactivity"
